Conditions: 313.15 K; 101 kPa; Liquid; Frequency=2 MHz; Linear variable-path acoustic interferometer
reportedEndpoint: speed of sound (m/s)
Quick note: give the figure in m/s, leave out the unit.

Request: Return reported speed of sound; argument: C[S+](C)[O-] [dimethyl sulfoxide]
Response: 1442

Request: Return reported speed of sound; argument: C[NH+](C)C.O=S(=O)([O-])O [trimethylammonium hydrogen sulfate]
Response: 1552

Request: Return reported speed of sound; argument: C[NH+](C)C.O=P([O-])(O)O [trimethylammonium dihydrogen phosphate]
Response: 1664

Request: Return reported speed of sound; argument: CC(=O)[O-].C[NH+](C)C [trimethylammonium acetate]
Response: 1490
